# pKd per entry
targetOrTestSystem: T1, serum purified human Complement Factor D (human, UniProt P00746 26-253)
T1 construct: Serum purified protein flowed over the captured antibodies; also called CFD; human CFD
T1 sequence (P00746 26-253): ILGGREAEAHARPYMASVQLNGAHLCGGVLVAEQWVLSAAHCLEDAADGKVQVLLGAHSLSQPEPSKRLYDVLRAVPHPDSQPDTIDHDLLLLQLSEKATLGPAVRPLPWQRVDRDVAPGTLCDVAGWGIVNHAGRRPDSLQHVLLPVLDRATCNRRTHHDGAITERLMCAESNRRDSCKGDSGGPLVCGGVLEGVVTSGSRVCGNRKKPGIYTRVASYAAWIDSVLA
runDescription: SPR Biacore, antibody on protein A chip, single cycle kinetics, 25 C;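 further: antibodies captured to roughly 70 RU on the protein A surface in HBS-EP+ running buffer, with kinetic constants derived by BIAevaluation fitting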
By convention, pKd is the negative base-10 log of a molar concentration.

Some solved cases for reference:
1) 54V59D / 34D60W101V (antibody, V domains shown, KCD119 TAF variant; full antibody captured on protein A) VH: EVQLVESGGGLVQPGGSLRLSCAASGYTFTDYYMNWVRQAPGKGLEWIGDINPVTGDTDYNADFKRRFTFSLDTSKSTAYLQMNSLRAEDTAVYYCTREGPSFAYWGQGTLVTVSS VL: DIQLTQSPSSLSASVGDRVTITCRSSQTIVHSNDDTYLEWYQQKPGKAPNLLIYKVSNRWSGVPSRFSGSGSGTDFTLTISSLQPEDFATYYCFQGSHVPVTFGQGTKVEIK: 10.67
2) 54V59D / 32D60W101V (antibody, V domains shown, KCD119 TAF variant; full antibody captured on protein A) VH: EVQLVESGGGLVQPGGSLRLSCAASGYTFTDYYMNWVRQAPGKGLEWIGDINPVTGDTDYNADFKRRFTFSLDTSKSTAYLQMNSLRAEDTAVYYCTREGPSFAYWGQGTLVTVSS VL: DIQLTQSPSSLSASVGDRVTITCRSSQTIVHDNGDTYLEWYQQKPGKAPNLLIYKVSNRWSGVPSRFSGSGSGTDFTLTISSLQPEDFATYYCFQGSHVPVTFGQGTKVEIK: 10.99

Field: next binder
[Q] Indicate its recorded pKd; the binder in question is 54V56V / 101V (antibody, V domains shown, KCD119 TAF variant; full antibody captured on protein A) VH: EVQLVESGGGLVQPGGSLRLSCAASGYTFTDYYMNWVRQAPGKGLEWIGDINPVTVDTSYNADFKRRFTFSLDTSKSTAYLQMNSLRAEDTAVYYCTREGPSFAYWGQGTLVTVSS VL: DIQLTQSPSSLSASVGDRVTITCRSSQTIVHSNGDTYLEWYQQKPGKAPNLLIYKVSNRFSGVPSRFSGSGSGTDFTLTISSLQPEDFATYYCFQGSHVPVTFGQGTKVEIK
[A] 10.19
